# Assayed System: human PCNA (Homo sapiens)
# Sequence (P12004 whole entry): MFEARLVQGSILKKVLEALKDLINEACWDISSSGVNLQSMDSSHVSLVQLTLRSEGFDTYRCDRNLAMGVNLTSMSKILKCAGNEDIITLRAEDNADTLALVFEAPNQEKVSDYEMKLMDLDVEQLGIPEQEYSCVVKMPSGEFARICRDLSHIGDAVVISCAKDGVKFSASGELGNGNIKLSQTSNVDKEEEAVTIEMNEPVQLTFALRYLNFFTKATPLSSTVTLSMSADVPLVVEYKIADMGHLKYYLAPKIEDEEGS
# Protocol Text: SPR binding of peptides to His6-tagged PCNA captured by anti-His6 antibody
# Experimental Parameters: Table S2, SPR, pH 7.5, T 298, This work
Ends that are not written are not given here.
Below, each of the substances is paired with its reported pKd value.
Remember, pKd is on a log scale: it is -log10 of the molar concentration.

Example results:
Ac-MDRWLVKW-NH2 [APIM] ... 4.96
Ac-TQGRLDDFFKVTGSL-NH2 [FEN1] ... 4.35
MIGQKTLYSFFTPSP [UNG2] ... 4.47

Give human PCNA (Homo sapiens) pKd for Ac-RQSTLYSFFPKSPAL-NH2 [MSH6]
5.58

All values here come from paper PMC6881253.
